Provide the recorded Population Pyknosed Nuclei (%) for the entries that follow.
- System: Fibroblast
- run.description: Multiplex assay against human fibroblast
- Format: toxicity, cell-based
- protocol.conditions: 48 h, 10 µM, compound concentration 10 uM, replicate 1
Numbers only, in %.

CC(C)C[C@H](CO)Nc1nc(S[C@@H](C)c2ccccc2)nc2nc(N)sc12 [AZD-8797] | 9
CN(C)C(=O)Cn1cc(-c2ccc(-c3nnc4ccccn34)cc2)cn1 | 17
CN1C[C@H](C(=O)N[C@]2(C)O[C@@]3(O)[C@@H]4CCCN4C(=O)[C@H](Cc4ccccc4)N3C2=O)C[C@@H]2c3cccc4[nH]cc(c34)C[C@H]21.CS(=O)(=O)O [DIHYDROERGOTAMINE MESYLATE] | 12
COc1ccc2c(c1OCc1ccccc1)C[C@@H](C(=O)O)N(C(=O)C(c1ccccc1)c1ccccc1)C2 [OLODANRIGAN] | 15
COc1ccc2[nH]c(I)c(CCNC(C)=O)c2c1 [IODOMELATONIN] | 13

Give measured Population Pyknosed Nuclei (%) for every item shown.
1. C[C@H](NC(=O)CNC(=O)c1cccc(Cl)c1)c1ccccc1
2. CCCCCCNC(=O)Nc1ccc(S(=O)(=O)Nc2ccc(CCNC[C@H](O)COc3ccc(O)cc3)cc2)cc1 [L-755507]
3. S=C(NCCCc1c[nH]cn1)NCCCN(Cc1ccc(Cl)c(Cl)c1)c1ccc(Br)cn1

A.
[27, 10, 12]
